# protocolDescription: qHTS Assay to Find Inhibitors of Chronic Active B-Cell Receptor Signaling: Hit Validation in Renilla Reporter Assay; also: nearly all actives have a fitted effect of over 70% in size
# details: TMD8 IkB-Renilla luciferase reporter, NF-kB signaling; series mostly up to 57.5 µM
In all, about 1,200 compounds went through this assay and about 55 (5%) were called active. About 15% were inconclusive and are not listed. Calls follow the shape of the dose curve; as a rule, active = well fitted inhibition curve with a large enough effect; inconclusive = small, poorly fitted or top-dose-only effect; inactive = no such curve, though single readings can be large or run the other way. The full list was thinned out, with actives kept by preference.
// allowed return values: active, inactive

CC[C@]12c3[nH]c4cc(CCC(=O)N(C)C)ccc4c3CCN1C(=O)[C@@H](CC(=O)NCc1ccco1)C[C@@H]2C(=O)N1CCN(C(=O)c2ccco2)CC1 : inactive
CCOC(=O)c1c(C)c(C(=O)OCC)n(C)c1C : inactive
Cc1nc(NC(=O)c2cnccn2)ccc1Br : inactive
O=C(CCCN1C(=O)/C(=C/c2ccccc2OC(F)F)SC1=S)Nc1cccnc1 : active

Input: I would be grateful if you could indicate the recorded call for `COc1ccccc1-c1cc(C(=O)Nc2cccnc2)no1` .
Output: inactive

Input: I would be grateful if you could indicate the recorded call for `COc1ccccc1/C=N/NC(=S)Nc1cccnc1` .
Output: inactive
